Test system: MCF7
Assay: Cytotoxicity against human MCF7 cells […] in aerobic condition assessed as survival at 100 uM by sulforhodamine assay
Type: functional
Conditions: read-out: Activity
Criterion: viability at 100 µM strictly under 70%. Met: true. Not met: false.

Exercise: Is it true that viability at 100 µM reported for O=C(/C=C/c1ccc(OCc2ccccc2)cc1)c1ccccc1O is less than 70%?
Key: true

Exercise: Is it true that viability at 100 µM reported for O=C(/C=C/c1ccccn1)c1ccccc1O is less than 70%?
Key: true

Exercise: Is it true that viability at 100 µM reported for CCCCCCCCCOc1ccc(/C=C/C(=O)c2ccccc2O)cc1 is less than 70%?
Key: false

Exercise: Is it true that viability at 100 µM reported for COc1ccc(/C=C/C(=O)c2ccccc2O)cc1OCc1ccccc1 is less than 70%?
Key: false

Exercise: Is it true that viability at 100 µM reported for CC(=O)Nc1ccc(/C=C/C(=O)c2ccccc2)cc1 is less than 70%?
Key: true

Exercise: Is it true that viability at 100 µM reported for O=C(CCc1ccc(OCc2ccccc2)cc1)c1ccccc1O is less than 70%?
Key: false

Exercise: Is it true that viability at 100 µM reported for O=C(/C=C/c1ccc(OCc2ccccc2)c(I)c1)c1ccccc1O is less than 70%?
Key: false

Exercise: Is it true that viability at 100 µM reported for O=c1cc(-c2ccc(Br)cc2)oc2ccccc12 is less than 70%?
Key: false

Exercise: Is it true that viability at 100 µM reported for O=C(/C=C/c1ccccc1)c1ccccc1 [CHALCONE] is less than 70%?
Key: true

Just for reference, ChEMBL document CHEMBL1147926 is where these values come from.
